# Tested on: ACHN
# Assay name: NCI tumour cell line growth inhibition, 48 h
Activity calls are given as the source filed them. Rule as the data show it: active = GI50 up to about 1.1 µM and inactive = higher.
Outcome measure: GI50

Compound | Outcome measure | Result value
OCC(O)COc1c(Cl)ccc(Cl)c1Cl (stereo not given) | GI50 | > 100 µM (inactive)
Oc1ccc2cc(Br)ccc2c1-c1c(O)ccc2ccc(Br)cc12 | GI50 | 14.8 µM (inactive)
CN1CC[C@@]2(c3cccc(O)c3)CC(=O)/C(=C/c3ccc(Cl)c(Cl)c3)[C@H]1C2 | GI50 | 1.67 µM (inactive)
O=C1/C(=C/c2ccc3c(c2)OCO3)SC2C=Nc3ccccc3N12 (stereo not given) | GI50 | > 100 µM (inactive)
Nc1nc(SCCc2ccccc2)c2nc[nH]c2n1 | GI50 | 35.7 µM (inactive)
COc1cccc(-c2cc(O)c3cc(OC)ccc3n2)c1 | GI50 | 1.74 µM (inactive)
c1ccc2c3nnc(c2c1)SCCSCCCSCCS3 | GI50 | 61.1 µM (inactive)
c1cnc2c(c1)-n1cccc1C1(CCCCC1)NN2 | GI50 | 88.3 µM (inactive)
COc1cc(/C=C2\N=C(c3ccccc3)N(c3ccc(C(=O)c4ccccc4)cc3N3C(=O)/C(=C/c4cc(OC)c(OC)c(OC)c4)N=C3c3ccccc3)C2=O)cc(OC)c1OC | GI50 | 22.6 µM (inactive)
Cn1c2ccccc2c(=O)c2cccc(C(=O)NC(CCC(N)=O)C(=O)O)c21 (stereo not given) | GI50 | > 100 µM (inactive)

----------
Recorded GI50 for the following molecules
# Test system: A549
# Assay name: NCI tumour cell line growth inhibition, 48 h
Active and inactive are the calls of the source. Cut-off read from the data, not from the text of the source: active = GI50 up to about 1.1 µM and inactive = higher.

Molecule | GI50
CCOc1ccc2nc(NC(=O)C(=O)C3C(=O)C(CC4C(=O)c5ccccc5C4=O)C(=O)CC3(C)C)sc2c1 (centres undefined) | 87.5 µM (inactive)
Cc1cc2c(cc1-c1cc3c(cc1C)C(C(C)C)=C(O)C(=O)/C3=C\Nc1c(C)n(C)n(-c3ccccc3)c1=O)/C(=C/Nc1c(C)n(C)n(-c3ccccc3)c1=O)C(=O)C(O)=C2C(C)C | 40.1 µM (inactive)
O=c1[nH]nc(-c2ccccc2)c2[nH]c3c4ccccc4ccc3c12 | 1.31 µM (inactive)
O=c1[nH]nc(-c2ccccc2)n1-n1cnnc1 | > 100 µM (inactive)

----------
Measured GI50 by item
# Tested on: NCI-H23
# Assay name: NCI tumour cell line growth inhibition, 48 h
The source made the active and inactive calls. No stated cut-off is given here; in the data, active = GI50 up to about 1.1 µM and inactive = higher.

Compound | Experimental system | GI50
O=C1OC(c2ccccc2)=N/C1=C\c1ccc(Oc2ccc(Cl)c(Cl)c2)cc1 | NCI-H23 | 35.4 µM (inactive)
OCC(O)COc1c(Cl)ccc(Cl)c1Cl (stereo unspecified) | NCI-H23 | > 100 µM (inactive)
C1CC2=C(C1)[Se]C(=C1Sc3nsnc3S1)[Se]2 | NCI-H23 | > 100 µM (inactive)
CCN(CC)CCN(/C(=N/c1ccccc1)N1CCOCC1)c1ccccc1 | NCI-H23 | 70 µM (inactive)
Cc1cc(Cl)ccc1NC(=O)CC/C(CC(=O)C(C)C)=N\NC(=O)C[n+]1ccccc1 | NCI-H23 | > 100 µM (inactive)
COC(=O)c1ccccc1/N=C(/NC1CCCCCC1)NS(=O)(=O)c1ccc(C)cc1 | NCI-H23 | > 100 µM (inactive)
OC1c2ccccc2[C@@H]2[C@H]1[C@@H](c1ccccc1)C1(Cc3ccccc3C1O)[C@H]2c1ccccc1 (stereo partly specified) | NCI-H23 | 6.4 µM (inactive)
Nc1nc(N)c(-c2ccccc2)c(C(=O)Nc2ccccc2)n1 | NCI-H23 | > 100 µM (inactive)
COCOCCCCCO[Si](C)(C)C(C)(C)C | NCI-H23 | 17.2 µM (inactive)
O=C(O)CSc1nnc(-c2ccco2)[nH]1 | NCI-H23 | > 100 µM (inactive)
O=C(NCCCN(CCCCN(CCCNC(=O)C(F)(F)F)Cc1ccccc1)Cc1ccccc1)C(F)(F)F | NCI-H23 | 15.5 µM (inactive)

----------
# System: RPMI-8226
# Assay name: NCI tumour cell line growth inhibition, 48 h
Calls of active or inactive are those of the source. Cut-off read from the data, not from the text of the source: active = GI50 up to about 1.1 µM and inactive = higher.
Outcome measure: GI50

Molecule | Result value
CC12N=NN(c3ccc([N+](=O)[O-])cc3)C1(O)c1ccccc1C2=O (stereo not drawn) | > 100 µM (inactive)
CC(C)(C)[Si](C)(C)OCC1OC(n2cnc3c(N)ncnc32)CC1OS(C)(=O)=O (stereo not drawn) | > 100 µM (inactive)
O=[N+]([O-])c1ccccc1S(=O)(=O)c1cccc2c1NCCC2 | > 100 µM (inactive)
COc1cc(C2c3cc4c(cc3[C@H](OCCN(C)C)[C@@H]3COC(=O)C23)OCO4)cc(OC)c1O (stereo partly drawn) | 0.938 µM (active)
C#Cc1cccc(N2C(=O)CC(=P(c3ccccc3)(c3ccccc3)c3ccccc3)C2=O)c1 | 6.4 µM (inactive)
NNC(=O)CCc1ccc2ccc3ccccc3c2c1 | 72.1 µM (inactive)
CCOC(=O)CCc1c(C(=O)OCC)[nH]c(/C=C2\NC(=O)C(C)=C2CC)c1C | > 100 µM (inactive)
CC(=O)OC1(C(C)=O)CC2(c3ccccc3)OC1(c1ccccc1)c1ccccc12 (stereo not drawn) | 3.18 µM (inactive)
COc1cc(C2SCC(=O)N2c2ccc(-c3ccc(-n4c(-c5ccccc5)nc5ccccc5c4=O)cc3)cc2)cc(OC)c1OC (stereo not drawn) | > 100 µM (inactive)
N#Cc1nc(NC(=O)c2ccccc2)sc1N | 9.82 µM (inactive)
Nc1ncnc2oc(C3OC(COC(=O)c4ccccc4)C(OC(=O)c4ccccc4)C3OC(=O)c3ccccc3)nc12 (stereo not drawn) | > 100 µM (inactive)
NC1=C(C(=O)O)C(=O)C(Nc2c(O)cccc2C(=O)O)=CC1=O | > 100 µM (inactive)
COc1cc(/C=C/C(=O)c2ccc(NS(=O)(=O)c3cc([N+](=O)[O-])ccc3C)cc2)cc(OC)c1OC | 1.96 µM (inactive)
CN1CCC23c4c5ccc(O)c4OC2C(=NN=C2CCC4(O)C6Cc7ccc(O)c8c7C4(CCN6C)C2O8)CCC3(O)C1C5 (stereo not drawn) | > 100 µM (inactive)
CC1OC(OC2C(O)COC(OC3C(C)OC(OC4C(OC(=O)[C@]56CCC(C)(C)C[C@@H]5C5=CCC7[C@@]8(C)C[C@H](O)[C@H](OC9OC(CO)C(O)C(O)C9O)[C@@](C)(CO)[C@@H]8CC[C@@]7(C)[C@]5(C)CC6)OCC(O)C4O)C(O)C3OC3OCC(O)C(O)C3O)C2O)C(O)C(O)C1O (stereo partly drawn) | 39 µM (inactive)
C/C(CCn1[nH]c(=O)ccc1=O)=N\N=C(N)N | > 100 µM (inactive)
CC(C)c1c(P(=O)(c2ccccc2)c2ccccc2)n(C)c2ccccc12 | 56.6 µM (inactive)
COc1cccc(/C=C2\N=C(Cl)OC2=O)c1O | > 73.5 µM (inactive)

----------
# Tested on: T47D
# Assay name: NCI tumour cell line growth inhibition, 48 h
Active and inactive are the calls of the source. Cut-off read from the data, not from the text of the source: active = GI50 up to about 1.1 µM and inactive = higher.

Compound | GI50
O=C(O)C(O)(c1ccc(-c2ccccc2)cc1)c1ccc(-c2ccccc2)cc1 | 41.6 µM (inactive)
CC(C)=NNc1snnc1C(N)=O | > 100 µM (inactive)
O=C1c2ccccc2CC12Cc1ccc3c(c1C2)CCC3 (stereo unspecified) | 19.1 µM (inactive)
CCC(=O)Oc1ccc2c(c1)c(=O)c1c(NCCCN(C)C)ccc3nnn2c31 | 15.7 µM (inactive)
O=C1C=CC(=O)c2c1ccc1c3ccccc3n(-c3ccccc3[N+](=O)[O-])c21 | 1.33 µM (inactive)
COC(=O)/C=C\n1c(C)cc(=O)[nH]c1=O | > 100 µM (inactive)

----------
Consider the following molecules and their measured GI50 readings.
# Tested on: HOP-62
# Assay name: NCI tumour cell line growth inhibition, 48 h
Active and inactive are the calls of the source. Cut-off read from the data, not from the text of the source: active = GI50 up to about 1.1 µM and inactive = higher.
Outcome measure: GI50

Molecule | Experimental system | Result value
CN1c2ccccc2C(=O)NC12CCN(CCCC(=O)c1ccc(F)cc1)CC2 | HOP-62 | > 100 µM (inactive)
COc1cc(Nc2cnc3cc(N)ccc3n2)cc(OC)c1OC | HOP-62 | 97.7 µM (inactive)
O=S(=O)(SCCCCSS(=O)(=O)c1ccc(Cl)cc1)c1ccc(Cl)cc1 | HOP-62 | 20.1 µM (inactive)
N#CC(C#N)/N=N/c1ccc(-c2nc3ccccc3[nH]2)cc1 | HOP-62 | > 100 µM (inactive)
CCOc1ccc2nc(NC(=O)C(=O)C3C(=O)C(CC4C(=O)c5ccccc5C4=O)C(=O)CC3(C)C)sc2c1 (stereo unspecified) | HOP-62 | > 100 µM (inactive)
COc1ccc2[nH]c3cc4c(=O)c5cc(OC)ccc5[nH]c4cc3c(=O)c2c1 | HOP-62 | 69.5 µM (inactive)
O=C(O)CSc1nnc(-c2ccco2)[nH]1 | HOP-62 | > 100 µM (inactive)
CCOC(=O)[C@H](CO)NC1=C(Cl)C(=O)c2c(O)ccc(O)c2C1=O | HOP-62 | > 10 µM (inactive)
C#CCn1c(=O)ccn(/C(=C\C(=O)OCC)C(=O)OCC)c1=O | HOP-62 | 23.5 µM (inactive)
C=C1C2CCC3C4(C)CCCC(C)(C(=O)O)C4CCC3(C2)C1OC(=O)/C(C)=C/C (stereo unspecified) | HOP-62 | 45.6 µM (inactive)
Cc1c2c3cc(O)ccc3nc-2n(C)c2ccccc12 | HOP-62 | 1.5 µM (inactive)
